The origin of these recorded values is patent US20150291675A1.

Target: T1, C-terminal biotinylated human Hepcidin-25 (human, not fully specified; biotinylated via a Lysine residue coupled to the C-terminus via a Mini-PEG linker)
T1 construct: Captured on plates via Neutravidin in the ELISAs; also called C-terminal biotinylated hHepcidin; C-terminal biotinylated hepcidin (Bachem AG)
T1 peptide: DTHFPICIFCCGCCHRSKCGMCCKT
Assay: direct ELISA, hepcidin captured via Neutravidin
Description: A “direct” ELISA was performed to verify the binding affinity and specificity of the selected Lcn2 muteins. […] Two step dilution series of purified Lcn2 muteins were incubated with the captured hepcidin […] at room temperature and detected either via the Strep-tag II using a rabbit anti-strep-tag II polyconal antibody (GenScript, USA) or by using a scaffold-specific polyclonal rabbit antibody. […]

{"columns": ["binder", "binding result"],
 "data": [
  ["lipocalin mutein of SEQ ID NO: 4 (designed binder, Purified with C-terminal Strep-tag II; also called hNGAL mutein; Lcn2 mutein; not shown: C-terminal Strep-tag II encoded by phNGAL98) QDSTSDLIPAPPLSKVPLQQNFQDNQFHGKWYVVGVAGNEMLREDKDPLKMLATIYELKEDKSYNVTRVMFEYKKCVYLIETFVPGSQPGEFTLGTIKSVPGLTSGLVRVVSTNYNQHAMVFFKRVWQNREVFWITLYGRTKELTSELKENFIRFSKSLGLPENHIVFPVPIDQCIDG", "binds"],
  ["lipocalin mutein of SEQ ID NO: 1 (designed binder, also called hNGAL mutein; Lcn2 mutein; not shown: C-terminal Strep-tag II encoded by phNGAL98) QDSTSDLIPAPPLSKVPLQQNFQDNQFHGKWYVVGLAGNEVLREDKDPMKMWATIYELEEDKSYNVTIVMFLAKKCEYLFQTFVPGSQPGEFTLGDIKSSPGRTSGLVRVVSTNYNQHAMVFFKTVWQNREVFWITLYGRTKELTSELKENFIRFSKSLGLPENHIVFPVPIDQCIDG", "binds"],
  ["lipocalin mutein of SEQ ID NO: 3 (designed binder, Purified with C-terminal Strep-tag II; also called hNGAL mutein; Lcn2 mutein; not shown: C-terminal Strep-tag II encoded by phNGAL98) QDSTSDLIPAPPLSKVPLQQNFQDNQFHGKWYVVGVAGNGLLREDKDPLKMHATIYELKEDKSYNVTRVLFVRKKCRYYISTFVPGSQPGEFTLGRIKSEPGRTSFLVRVVSTNYNQHAMVFFKMVWQNREVFWITLYGRTKELTSELKENFIRFSKSLGLPENHIVFPVPIDQCIDG", "binds"]
]}
